Listed next: entries and their corresponding IC50.
biological target: HPK1 (Homo sapiens, UniProt Q92918); assay: HPK1 biochemical assay (ADP-GLO Kinase Assay); conditions: B*: testing performed in a first testing facility; read-out: HPK1 IC50 (nM) Relative, B*
Sequence (Q92918 whole entry): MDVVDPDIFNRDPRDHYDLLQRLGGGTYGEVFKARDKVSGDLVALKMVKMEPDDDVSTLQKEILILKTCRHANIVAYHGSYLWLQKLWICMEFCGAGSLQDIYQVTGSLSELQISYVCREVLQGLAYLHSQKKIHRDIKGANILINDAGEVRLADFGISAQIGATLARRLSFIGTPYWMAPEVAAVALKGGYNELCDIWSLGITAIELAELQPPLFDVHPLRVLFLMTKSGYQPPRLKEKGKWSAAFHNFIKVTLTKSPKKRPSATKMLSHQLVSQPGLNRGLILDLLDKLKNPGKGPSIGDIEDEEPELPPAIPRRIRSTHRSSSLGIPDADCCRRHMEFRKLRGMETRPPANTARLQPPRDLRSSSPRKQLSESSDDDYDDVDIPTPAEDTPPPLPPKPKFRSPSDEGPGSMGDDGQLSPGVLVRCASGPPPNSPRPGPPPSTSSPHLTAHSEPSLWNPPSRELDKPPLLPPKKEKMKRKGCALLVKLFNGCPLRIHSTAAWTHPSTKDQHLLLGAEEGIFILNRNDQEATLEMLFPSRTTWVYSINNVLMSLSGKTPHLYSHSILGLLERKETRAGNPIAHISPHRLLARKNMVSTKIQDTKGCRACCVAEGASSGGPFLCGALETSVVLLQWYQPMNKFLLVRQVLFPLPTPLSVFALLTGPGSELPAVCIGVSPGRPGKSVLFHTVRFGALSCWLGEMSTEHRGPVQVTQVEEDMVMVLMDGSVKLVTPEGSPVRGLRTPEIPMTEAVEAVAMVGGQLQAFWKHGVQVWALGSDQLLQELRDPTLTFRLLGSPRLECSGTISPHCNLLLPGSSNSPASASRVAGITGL

{"columns": ["Smiles str", "IC50"],
 "data": [
  ["COc1cc2c(cc1Nc1ncc(Cl)c(-n3cc(C(=O)N(C)C)c4ccccc43)n1)CN(C)CC2", "≤ 100 nM"],
  ["CCc1c[nH]c2ncc(-c3cc(N)cc(P(C)(C)=O)c3)cc12", "≤ 100 nM"],
  ["COc1cc2c(cc1Nc1ncc(Cl)c(-n3cc(C4(O)COC4)c4ccccc43)n1)CN(C)CC2", "100 to 500 nM"],
  ["COc1cc2c(cc1Nc1ncc3ccn(-c4cccnc4C)c3n1)CN(C)CC2", "≤ 100 nM"]
]}
